Data provenance is paper PMC6650976.

biological target: the molecule itself; experiment: cross-linking; Ca2+-loaded proteins: 0.02% glutaric aldehyde, 16 h, 20 °C, protein 1 mg/mL, 20 mM Tricine-KOH pH 7.4, 50 mM KCl, 1 mM DTT, 1 mM CaCl2; SDS-PAGE, Coomassie, densitometry; self-association
readout-type: Multimer 100–250 kDa, % (%)
The figure you give is taken to be in %; do not add the unit.

Prompt: For human recoverin mutant F172A (natural protein, UniProt P35243 1-200, looked up, myristoylated (fraction of non-myristoylated forms did not exceed 16%), recoverin, human, UniProt P35243, C-terminal 'black' cluster mutant; Parent construct as m1; source: E. coli, expressed and purified similarly to the rWT protein (phenyl-Sepharose, Toyopearl SuperQ-650M)) MGNSKSGALSKEILEELQLNTKFSEEELCSWYQSFLKDCPTGRITQQQFQSIYAKFFPDTDPKAYAQHVFRSFDSNLDGTLDFKEYVIALHMTTAGKTNQKLEWAFSLYDVDGNGTISKNEVLEIVMAIFKMITPEDVKLLPDDENTPEKRAEKIWKYFGKNDDDKLTEKEAIEGTLANKEILRLIQFEPQKVKEKMKNA , write its Multimer 100–250 kDa, %.
Completion: 20

Prompt: For human recoverin mutant F49A (natural protein, UniProt P35243 1-200, looked up, myristoylated (fraction of non-myristoylated forms did not exceed 16%), recoverin, human, UniProt P35243, N-terminal 'gray' cluster mutant; Parent construct as m1; source: E. coli, expressed and purified similarly to the rWT protein (phenyl-Sepharose, Toyopearl SuperQ-650M)) MGNSKSGALSKEILEELQLNTKFSEEELCSWYQSFLKDCPTGRITQQQAQSIYAKFFPDTDPKAYAQHVFRSFDSNLDGTLDFKEYVIALHMTTAGKTNQKLEWAFSLYDVDGNGTISKNEVLEIVMAIFKMITPEDVKLLPDDENTPEKRAEKIWKYFGKNDDDKLTEKEFIEGTLANKEILRLIQFEPQKVKEKMKNA , write its Multimer 100–250 kDa, %.
Completion: 21.1

Prompt: For human recoverin mutant F83A (natural protein, UniProt P35243 1-200, looked up, myristoylated (fraction of non-myristoylated forms did not exceed 16%), recoverin, human, UniProt P35243, N-terminal 'black' cluster mutant; Parent construct as m1; source: E. coli, expressed and purified similarly to the rWT protein (phenyl-Sepharose, Toyopearl SuperQ-650M)) MGNSKSGALSKEILEELQLNTKFSEEELCSWYQSFLKDCPTGRITQQQFQSIYAKFFPDTDPKAYAQHVFRSFDSNLDGTLDAKEYVIALHMTTAGKTNQKLEWAFSLYDVDGNGTISKNEVLEIVMAIFKMITPEDVKLLPDDENTPEKRAEKIWKYFGKNDDDKLTEKEFIEGTLANKEILRLIQFEPQKVKEKMKNA , write its Multimer 100–250 kDa, %.
Completion: 13.2
